Molecular target: T1, monkey CD22 protein (ACROBiosystems, catalog number SI2-R52Ha) (monkey, UniProt F6W485 20-688)
T1 construct: commercial protein; also called monkey CD22-ECD; monkey CD22-ECD-His
T1 sequence: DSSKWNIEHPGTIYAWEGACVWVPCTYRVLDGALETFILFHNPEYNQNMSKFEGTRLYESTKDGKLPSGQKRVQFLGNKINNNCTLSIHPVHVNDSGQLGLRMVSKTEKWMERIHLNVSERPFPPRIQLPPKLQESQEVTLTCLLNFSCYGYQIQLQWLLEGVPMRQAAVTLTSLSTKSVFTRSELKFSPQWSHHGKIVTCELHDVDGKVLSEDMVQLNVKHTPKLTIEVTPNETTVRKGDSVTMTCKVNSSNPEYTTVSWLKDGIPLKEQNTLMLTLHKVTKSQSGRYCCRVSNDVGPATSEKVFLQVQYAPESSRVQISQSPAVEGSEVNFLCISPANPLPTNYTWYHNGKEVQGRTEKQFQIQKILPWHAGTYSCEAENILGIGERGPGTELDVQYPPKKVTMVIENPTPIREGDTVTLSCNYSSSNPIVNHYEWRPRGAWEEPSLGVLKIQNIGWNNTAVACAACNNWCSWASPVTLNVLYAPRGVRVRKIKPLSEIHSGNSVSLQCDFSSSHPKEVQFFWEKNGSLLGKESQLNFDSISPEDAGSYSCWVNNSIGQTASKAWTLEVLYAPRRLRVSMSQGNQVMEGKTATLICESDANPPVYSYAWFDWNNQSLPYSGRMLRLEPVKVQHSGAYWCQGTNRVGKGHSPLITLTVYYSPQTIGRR
Experiment: ELISA, coated monkey CD22 protein, antibody 0.01 nM
Measured Metric: OD450 (OD450)
Write the answer as a number in OD450, unit excluded.

binder="HA22-hIgG1 (antibody, V domains shown) VH: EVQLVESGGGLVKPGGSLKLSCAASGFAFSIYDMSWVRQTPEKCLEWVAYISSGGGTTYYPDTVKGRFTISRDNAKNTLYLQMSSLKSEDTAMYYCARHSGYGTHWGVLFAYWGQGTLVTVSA VL: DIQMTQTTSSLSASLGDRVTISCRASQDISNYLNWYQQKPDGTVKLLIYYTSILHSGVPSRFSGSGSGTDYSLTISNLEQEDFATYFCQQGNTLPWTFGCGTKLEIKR" measured_metric=OD450 measured_result=1.54

Proceeding to the next binder to report its OD450.
Query string: Kindly indicate its recorded OD450. Item: F2.55.1 (antibody, human IgG1, lambda, V domains shown, human-murine chimeric IgG1 lambda; VL name legible) VH: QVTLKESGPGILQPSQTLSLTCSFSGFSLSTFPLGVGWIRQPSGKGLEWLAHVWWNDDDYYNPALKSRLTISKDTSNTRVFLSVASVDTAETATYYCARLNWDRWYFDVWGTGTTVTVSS VL: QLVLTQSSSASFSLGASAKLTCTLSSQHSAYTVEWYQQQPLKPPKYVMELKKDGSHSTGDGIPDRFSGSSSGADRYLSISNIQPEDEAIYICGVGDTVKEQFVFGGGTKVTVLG
Result string: 0.85

The origin of these recorded values is patent US20240084003A1.
